These data points were gathered from patent US9023821B2.

# System: human airway epithelial cells (HAECs)
# TEST: High-throughput sequencing (HTS) of miRNAs at four stages of differentiation of HAECs
# MEASUREMENT CONTEXT: HTS, ALI-WD
Measured Abundance (%), WD accompanies every entry in the list below.
Numbers only here, please. The scale is %.

Answered examples (2):
# SUBSTANCE, VALUE
rows = [
    ("hsa-miR-34c-5p: human miRNA, SEQ ID No. 40 (AGGCAGUGUAGUUAGCUGAUUGC; expressed or natural sequence; listed as Homo sapiens)", 3.23),
    ("hsa-miR-378: human miRNA, SEQ ID No. 43 (ACUGGACUUGGAGUCAGAAGG; expressed or natural sequence; listed as Homo sapiens)", 0.61),
]

Consider the additional substance presented here.
Ask | Provide the documented Abundance (%), WD with human airway epithelial cells (HAECs) as the system for hsa-miR-130a: human miRNA, SEQ ID No. 4 (CAGUGCAAUGUUAAAAGGGCAU; expressed or natural sequence; listed as Homo sapiens)
Reply | 0.65

* * *

Measured Level of intensity of expression in log2 measured with the Agilent chips, FC accompanies every entry in the list below.
# Test system: human airway epithelial cells (HAECs)
# TEST: Agilent miRNA chips, miRNA expression at four stages of differentiation of HAECs
# MEASUREMENT CONTEXT: stage FC; Table VI
Numbers only here, please. The scale is log2.

Answered examples (4):
# SUBSTANCE, VALUE
records = [
    ("hsa-miR-34c-5p: human miRNA, SEQ ID No. 40 (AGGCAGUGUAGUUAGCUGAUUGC; expressed or natural sequence; listed as Homo sapiens)", 10.56),
    ("hsa-miR-141: human miRNA, SEQ ID No. 6 (UAACACUGUCUGGUAAAGAUGG; expressed or natural sequence; listed as Homo sapiens)", 13.03),
    ("hsa-miR-26a: human miRNA, SEQ ID No. 28 (UUCAAGUAAUCCAGGAUAGGCU; expressed or natural sequence; listed as Homo sapiens)", 10.59),
    ("hsa-miR-30e: human miRNA, SEQ ID No. 36 (UGUAAACAUCCUUGACUGGAAG; expressed or natural sequence; listed as Homo sapiens)", 9.25),
]

Ask | Bench note: what Level of intensity of expression in log2 measured with the Agilent chips, FC did hsa-miR-429: human miRNA, SEQ ID No. 45 (UAAUACUGUCUGGUAAAACCGU; expressed or natural sequence; listed as Homo sapiens) show?
Reply | 9.82

* * *

# Test system: human airway epithelial cells (HAECs)
# TEST: High-throughput sequencing (HTS) of miRNAs at four stages of differentiation of HAECs
# MEASUREMENT CONTEXT: stage D0; Table VI
# Description: The total RNAs were extracted from HAECs cultivated at the air-liquid interface at four stages of differentiation: ALI-D0 (0 day), ALI-D7 (7 days), ALI-FC (during appearance of the first cilia at about 14 days) and ALI-WD (wholly differentiated at about 21 days). The cells are lysed in reagent with Trizol® (Invitrogen). The total RNAs containing small RNAs and microRNAs are purified on Qiagen RNEasy columns (Qiagen) according to the supplier's instructions. […]
REPORTED ENDPOINT: Level of intensity of expression in log2 measured by high-throughput sequencing, D0 (log2)
Numbers only here, please. The scale is log2.

# SUBSTANCE, VALUE
measured = [
    ("hsa-miR-374a: human miRNA, SEQ ID No. 42 (UUAUAAUACAACCUGAUAAGUG; expressed or natural sequence; listed as Homo sapiens)", 0.62),
    ("hsa-miR-106b: human miRNA, SEQ ID No. 2 (UAAAGUGCUGACAGUGCAGAU; expressed or natural sequence; listed as Homo sapiens)", 4.43),
    ("hsa-miR-34a: human miRNA, SEQ ID No. 38 (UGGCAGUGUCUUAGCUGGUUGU; expressed or natural sequence; listed as Homo sapiens)", 10.31),
    ("hsa-miR-203: human miRNA, SEQ ID No. 19 (GUGAAAUGUUUAGGACCACUAG; expressed or natural sequence; listed as Homo sapiens)", 13.50),
]

Ask | Bench note: what Level of intensity of expression in log2 measured by high-throughput sequencing, D0 did hsa-miR-92b: human miRNA, SEQ ID No. 49 (UAUUGCACUCGUCCCGGCCUCC; expressed or natural sequence; listed as Homo sapiens) show?
Reply | 7.49

Ask | Subsequent entry: hsa-miR-148a: human miRNA, SEQ ID No. 7 (UCAGUGCACUACAGAACUUUGU; expressed or natural sequence; listed as Homo sapiens)
Reply | 7.04

Ask | Subsequent entry: hsa-miR-429: human miRNA, SEQ ID No. 45 (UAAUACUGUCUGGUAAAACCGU; expressed or natural sequence; listed as Homo sapiens)
Reply | 8.23

Ask | Subsequent entry: hsa-miR-99a: human miRNA, SEQ ID No. 52 (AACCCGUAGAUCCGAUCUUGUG; expressed or natural sequence; listed as Homo sapiens)
Reply | 9.77

Ask | Subsequent entry: hsa-miR-34c-5p: human miRNA, SEQ ID No. 40 (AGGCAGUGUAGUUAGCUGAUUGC; expressed or natural sequence; listed as Homo sapiens)
Reply | 7.88

Ask | Subsequent entry: hsa-miR-449a: human miRNA, SEQ ID No. 46 (UGGCAGUGUAUUGUUAGCUGGU; expressed or natural sequence; listed as Homo sapiens)
Reply | 4.48

Ask | Subsequent entry: hsa-let-7f: human miRNA, SEQ ID No. 161 (UGAGGUAGUAGAUUGUAUAGUU; expressed or natural sequence; listed as Homo sapiens)
Reply | 5.24

* * *

# System: human airway epithelial cells (HAECs)
# TEST: High-throughput sequencing (HTS) of miRNAs at four stages of differentiation of HAECs
# MEASUREMENT CONTEXT: stage D7; Table VI
Tick t if Level of intensity of expression in log2 measured by high-throughput sequencing, D7 is 10 log2 or greater. Tick f if Level of intensity of expression in log2 measured by high-throughput sequencing, D7 is less than 10 log2.

# SUBSTANCE, CAT
records = [
    ("hsa-let-7f: human miRNA, SEQ ID No. 161 (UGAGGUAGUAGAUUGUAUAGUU; expressed or natural sequence; listed as Homo sapiens)", "f"),
    ("hsa-miR-939: human miRNA, SEQ ID No. 50 (UGGGGAGCUGAGGCUCUGGGGGUG; expressed or natural sequence; listed as Homo sapiens)", "f"),
    ("hsa-let-7g: human miRNA, SEQ ID No. 162 (UGAGGUAGUAGUUUGUACAGUU; expressed or natural sequence; listed as Homo sapiens)", "t"),
    ("hsa-miR-23b: human miRNA, SEQ ID No. 26 (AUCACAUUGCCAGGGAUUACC; expressed or natural sequence; listed as Homo sapiens)", "t"),
]

Then this substance:
Ask | Given the entry hsa-miR-99a: human miRNA, SEQ ID No. 52 (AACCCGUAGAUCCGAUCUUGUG; expressed or natural sequence; listed as Homo sapiens) , answer whether its Level of intensity of expression in log2 measured by high-throughput sequencing, D7 meets or surpasses 10 log2.
Reply | t

* * *

# Tested on: basal cells and pyramidal cells of the airway epithelium
# TEST: miRNA expression in sorted basal cells versus pyramidal cells (ciliated + secretory), HTS and Agilent chips
# Set-up: species or system human
# MEASUREMENT CONTEXT: basal cells
Measured Intensity of the level of expression in log2 in basal cells (323(+)) accompanies every entry in the list below.
Numbers only here, please. The scale is log2.

Answered examples (3):
# SUBSTANCE, VALUE
measured = [
    ("hsa-miR-224: human miRNA, SEQ ID No. 24 (CAAGUCACUAGUGGUUCCGUU; expressed or natural sequence; listed as Homo sapiens)", 3.65),
    ("hsa-miR-27b: human miRNA, SEQ ID No. 30 (UUCACAGUGGCUAAGUUCUGC; expressed or natural sequence; listed as Homo sapiens)", 9.77),
    ("hsa-miR-30d: human miRNA, SEQ ID No. 35 (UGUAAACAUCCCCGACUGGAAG; expressed or natural sequence; listed as Homo sapiens)", 8.16),
]

Ask | Bench note: what Intensity of the level of expression in log2 in basal cells (323(+)) did hsa-let-7e: human miRNA, SEQ ID No. 160 (UGAGGUAGGAGGUUGUAUAGUU; expressed or natural sequence; listed as Homo sapiens) show?
Reply | 8.24

* * *

# Tested on: human airway epithelial cells (HAECs)
# TEST: High-throughput sequencing (HTS) of miRNAs at four stages of differentiation of HAECs
# MEASUREMENT CONTEXT: healthy human airway epithelial tissue, stage WD
REPORTED ENDPOINT: Level of intensity of expression in log2 At the differentiated stage (WD) measured in HTS (log2)
Numbers only here, please. The scale is log2.

Answered examples (4):
# SUBSTANCE, TARGET SYSTEM, VALUE
measured = [
    ("hsa-miR-378: human miRNA, SEQ ID No. 43 (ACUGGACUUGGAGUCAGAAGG; expressed or natural sequence; listed as Homo sapiens)", "human airway epithelial cells (HAECs)", 11.70),
    ("hsa-miR-151-5p: human miRNA, SEQ ID No. 8 (UCGAGGAGCUCACAGUCUAGU; expressed or natural sequence; listed as Homo sapiens)", "human airway epithelial cells (HAECs)", 10.22),
    ("hsa-miR-200a: human miRNA, SEQ ID No. 16 (UAACACUGUCUGGUAACGAUGU; expressed or natural sequence; listed as Homo sapiens)", "human airway epithelial cells (HAECs)", 10.96),
    ("hsa-miR-34a: human miRNA, SEQ ID No. 38 (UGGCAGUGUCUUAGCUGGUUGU; expressed or natural sequence; listed as Homo sapiens)", "human airway epithelial cells (HAECs)", 13.75),
]

Consider the additional substance presented here.
Ask | Provide the documented Level of intensity of expression in log2 At the differentiated stage (WD) measured in HTS with human airway epithelial cells (HAECs) as the system for hsa-let-7g: human miRNA, SEQ ID No. 162 (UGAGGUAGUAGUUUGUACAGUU; expressed or natural sequence; listed as Homo sapiens)
Reply | 12.40
